Data origin, for the record: the supplement of paper PMC10567573

B1: FCHO1 (parent)
chain: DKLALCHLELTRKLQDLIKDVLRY

Variants of: B1
Assay: protein stability index of a GFP-peptide fusion (GPS, HEK-293T) (PSI 1-6); higher = more stable;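 also: lentivirally expressed fusions sorted by FACS into six bins by GFP to DsRed ratio, PSI derived from sequencing read proportions per bin multiplied by bin number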
Details: c terminus: a fixed tail appended
Use 2 as the dividing line for protein stability index, with the line itself on the Y side and lower values as N.

[[record]]
mutant_designation = "L10V"
category = "Y"

[[record]]
mutant_designation = "L22S"
category = "Y"

[[record]]
mutant_designation = "E9Y"
category = "Y"

[[record]]
mutant_designation = "Q15R"
category = "Y"

[[record]]
mutant_designation = "L10G"
category = "N"

[[record]]
mutant_designation = "H7A"
category = "N"

[[record]]
mutant_designation = "L8N"
category = "Y"

[[record]]
mutant_designation = "D20M"
category = "N"

[[record]]
mutant_designation = "V21I"
category = "Y"

[[record]]
mutant_designation = "V21S"
category = "N"

[[record]]
mutant_designation = "I18S"
category = "Y"

[[record]]
mutant_designation = "L5H"
category = "Y"

[[record]]
mutant_designation = "A4Q"
category = "Y"

[[record]]
mutant_designation = "L14D"
category = "Y"

[[record]]
mutant_designation = "I18F"
category = "Y"

[[record]]
mutant_designation = "L8K"
category = "Y"

[[record]]
mutant_designation = "L17D"
category = "Y"

[[record]]
mutant_designation = "D16M"
category = "Y"

[[record]]
mutant_designation = "D1K"
category = "Y"

[[record]]
mutant_designation = "L17I"
category = "Y"

[[record]]
mutant_designation = "K2C"
category = "Y"

[[record]]
mutant_designation = "D20K"
category = "N"

[[record]]
mutant_designation = "L14Q"
category = "Y"

